All figures here come from PubChem BioAssay (NCI).

- System: MDA-N
- measurement-protocol: NCI tumour cell line growth inhibition, 48 h
Here the recorded TGI is given for each entry.
Field format: number, assumed µM, no unit text.

Example compounds with recorded TGI:
Cc1cc(CN(Cc2ccccc2)Cc2nc3ccccc3[nH]2)c(O)c(CN(Cc2nc3ccccc3[nH]2)Cc2nc3ccccc3[nH]2)c1 :: 29
CN(CCNC(=O)c1cn(C)c2c1ccc1cc(Cl)ccc12)CCNC(=O)c1cn(C)c2c1ccc1cc(Cl)ccc12 :: 3.41
COc1cccc2c1C(=O)c1c(O)c3c(c(O)c1C2=O)C[C@@](O)(C(C)=O)C[C@@H]3OC1CC(N(C)C)C(O)C(C)O1 (stereo partly drawn) :: 0.00154

Query :: Requested field: TGI. Item: O=C1CC(NCCCNC2CC(=O)c3c(Br)sc(Br)c32)c2c(Br)sc(Br)c21 (stereo not drawn)
Result :: 5.54

----------
- Tested on: CAKI-1 renal
- measurement-protocol: NCI tumour cell line growth inhibition, 48 h
reported-metric: TGI (µM)
Field format: number, assumed µM, no unit text.

CCOC(=O)c1c(C(F)(F)F)n([O-])c2ccc(Cl)cc2[n+]1=O :: 2.87
COc1ccc2[nH]c3c(C)c4ccnc(NCCCN(C)CCCN)c4c(C)c3c2c1 :: 0.551
CCN1CCN(CC(=O)Nc2nc3ccc(NCc4ccc(C)cc4)cc3s2)CC1 :: 10.5

Kindly review the next compound as well.
Query :: Requested field: TGI. Item: CCOC(=O)C1=C(C)NC(C)=C(C(=O)OCC)C1c1cc(Br)c(O)c(OC)c1
Result :: 30.8

----------
- System: SK-MEL-5 melanoma
- measurement-protocol: NCI tumour cell line growth inhibition, 48 h
reported-metric: TGI

Example molecules with recorded TGI:
CC1C(O)[C@@]2(OC[C@@]34C(=O)CC5(O)[C@H](CCC6Cc7nc8c(nc7C[C@]65C)CC5CC[C@@H]6C7=C[C@H]9O[C@@]%10(O[C@@](C)(CO)C[C@@H]%10O)C(C)[C@@]9(O)[C@]7(C)[C@@H](O)CC6[C@]5(C)C8)C3=CC[C@H]4C2C)OC1(C)C (stereo partly specified) :: 0.415 µM
CCOP(=O)(CCN1CCN(CCCCCOc2cc3c(cc2OC)C(=O)N2CCC[C@H]2C=N3)CC1)OCC :: 23.8 µM
Oc1ccc(NCc2cc(O)ccc2O)cc1 :: 38.9 µM
COc1ccccc1NC(=O)CC(=O)n1nc(-c2ccccc2)c(N=Nc2ccccc2[N+](=O)[O-])c1-c1ccccc1 :: > 100 µM
Oc1[nH]c2ccc(Cl)cc2c1/C=c1/ccc2c(c1)N=C(c1ccc(C(F)(F)F)cc1)N=2 :: 3.31 µM

Query :: Requested field: TGI. Item: CC(=O)NC1CCCN(O)C(=O)/C=C(/C)CCOC(=O)C(NC(C)=O)CCCN(O)C(=O)/C=C(/C)CCOC(=O)C(NC(C)=O)CCCN(O)C(=O)/C=C(/C)CCOC1=O.[Fe] (stereo unspecified)
Result :: > 100 µM

Query :: Another: CN(C(=O)C12C3C4C1C1C2C3C41C(=O)N(C)C(C)(C)C)C(C)(C)C (stereo unspecified)
Result :: > 50 µM

Query :: Another: Cc1no[n+]([O-])c1/C=N/NS(=O)(=O)c1ccccc1
Result :: > 100 µM

Query :: Another: Cc1cc(C(=O)N2CCN(C)CC2)c2c(=O)n(-c3ccccc3)c(=O)n(CC(O)CN3CCN(c4ncccn4)CC3)c2n1 (stereo unspecified)
Result :: > 100 µM

Query :: Another: O=S(=O)(c1ccccc1)n1cnc(CCc2ccccc2)n1
Result :: > 100 µM

Query :: Another: COc1cc(-c2ccccc2)c(OC)cc1CCl
Result :: > 100 µM

Query :: Another: Cc1ccc(NC(C(=O)c2ccccc2)c2ccccc2)cc1 (stereo unspecified)
Result :: 14.5 µM

Query :: Another: Cc1ccc(C2NC(=S)N3C(c4ccc(C)cc4)NC(=S)N23)cc1 (stereo unspecified)
Result :: 14.3 µM

Query :: Another: COC(=O)CCN1CCN(CCO)CC1C (stereo unspecified)
Result :: > 10 µM

Query :: Another: Nc1cccc2c1CN(C1CCC(=O)NC1=O)C2=O (stereo unspecified)
Result :: > 100 µM

Query :: Another: c1ccc(CNCCCNCCCCNCCCNCc2ccccc2)cc1
Result :: > 56.2 µM

----------
- Test system: NCI-H226 lung
- measurement-protocol: NCI tumour cell line growth inhibition, 48 h
reported-metric: TGI

Example compounds with recorded TGI:
CCOC(=O)CCC(NC(=O)c1ccc(OCc2ccc3nc(OC)c(OC)nc3c2)cc1)C(=O)OCC (stereo not drawn) :: > 100 µM
O=C1CSc2sc(=S)sc2S1 :: > 100 µM
CN=c1ss/c(=N\C(=S)N(C)C)n1C1CCCCC1 :: > 31.6 µM
O=C(CCCCCNC1=CC(=O)c2ccccc2C1=O)NCCC[Te]c1ccccc1 :: 1.23 µM
CC(C)(C)C(=O)CC(=O)C(F)(F)C(F)(F)C(F)(F)F.CC(C)(C)C(=O)CC(=O)C(F)(F)C(F)(F)C(F)(F)F.CC(C)(C)C(=O)CC(=O)C(F)(F)C(F)(F)C(F)(F)F.[Er] :: > 100 µM

Query :: Requested field: TGI. Item: N#CC12CC=C(c3ccccc3)N=C1NC(c1ccccc1)=CC2 (stereo not drawn)
Result :: > 100 µM

Query :: Another: COc1ccc(/C=c2\sc3nnc(CCC(=O)Nc4cccc(C(F)(F)F)c4)n3c2=O)cc1
Result :: > 100 µM

Query :: Another: C=C1C(=O)O[C@H]2[C@H]1CC/C(COC(=O)c1cccc3ccccc13)=C\CC[C@@]1(C)O[C@@H]21
Result :: 2.83 µM

Query :: Another: COc1ccccc1NC(=O)CC(=O)n1nc(-c2ccccc2)c(N=Nc2ccccc2[N+](=O)[O-])c1-c1ccccc1
Result :: > 100 µM

Query :: Another: Cc1ccc(N(C)S(=O)(=O)c2ccccc2)cc1
Result :: > 100 µM

Query :: Another: CCCCCCCCn1ccc2cc(NC(=O)Cn3cc(CN4CCC(C)CC4)nn3)ccc21
Result :: 3.83 µM

Query :: Another: S=C(Nc1ccc(Cl)cc1)SC1CCCCC1
Result :: > 100 µM

Query :: Another: O=NN(CCCl)C(=O)Nc1ccc(Cl)c(Cl)c1
Result :: > 100 µM

Query :: Another: c1cc2ccc3cc2cc1CNCCOCCNCc1ccc2ccc(cc2c1)CNCCOCCNC3
Result :: > 100 µM

----------
- Test system: NCI/ADR-RES ovarian
- measurement-protocol: NCI tumour cell line growth inhibition, 48 h; in the data active means GI50 below about 0.43 µM; inactive means the rest
Write down the outcome that applies. Available outcomes: 1 for active, -1 for inactive

Completed entries (count: 5):
O=C1NC(=O)C(N2CCc3ccccc32)=C1c1ccc(Cl)cc1 :: -1
COC(=O)c1c2c(c(C)[n+]([O-])c1C)C(=O)C=C(NCc1ccc(Br)cc1)C2=O :: 1
O=Cc1c[nH]c2ccc(-c3csc4ccccc34)cc12 :: -1
Cc1cn(C2CC(N=[N+]=[N-])C(CO)O2)c(=O)[nH]c1=O (configuration not stated) :: -1
O=C(CCCCCNC1=CC(=O)c2ccccc2C1=O)NCCC[Te]c1ccccc1 :: 1

Query :: Give the logged outcome of this assay for the following compound: CCc1ccc(Oc2nccc(-c3c(-c4ccc(F)cc4)ncn3C3CCNCC3)n2)cc1
Result :: -1

Query :: Another: C=C1C(=O)O[C@H]2[C@H]1CC/C(COC(=O)c1cccc3ccccc13)=C\CC[C@@]1(C)O[C@@H]21
Result :: -1

Query :: Another: O=C1/C(=C\c2ccc([N+](=O)[O-])cc2)CS(=O)(=O)C/C1=C/c1ccc([N+](=O)[O-])cc1
Result :: 1

Query :: Another: NC(Cc1ccc(O)cc1)C(=O)N/N=C/c1ccc(N(CCCl)CCCl)cc1 (configuration not stated)
Result :: -1

Query :: Another: CCOC(=O)c1c(C(F)(F)F)n([O-])c2ccc(Cl)cc2[n+]1=O
Result :: -1

Query :: Another: Oc1[nH]c2ccc(Cl)cc2c1/C=c1/ccc2c(c1)N=C(c1ccc(C(F)(F)F)cc1)N=2
Result :: -1

Query :: Another: O=S1CCN(Cc2ccc(-c3ccc4ncnc(Nc5ccc(OCc6ccccc6)c(F)c5)c4c3)o2)CC1
Result :: -1

Query :: Another: Cc1ccc2c(n1)C(=O)C(Cl)=C(Nc1ccc(N3CCN(C)CC3)cc1)C2=O
Result :: -1

Query :: Another: O=c1[nH]cc(CO)c(=O)[nH]1
Result :: -1

----------
- Tested on: TK-10 renal
- measurement-protocol: NCI tumour cell line growth inhibition, 48 h
Here the recorded GI50 is given for each entry.

Example compounds with recorded GI50:
CC(N)CN.CC(N)CN.[Cl-].[O]=[Os+2]=[O] (configuration not stated) :: > 100 µM
CC(=O)NC1CCCN(O)C(=O)/C=C(/C)CCOC(=O)C(NC(C)=O)CCCN(O)C(=O)/C=C(/C)CCOC(=O)C(NC(C)=O)CCCN(O)C(=O)/C=C(/C)CCOC1=O.[Fe] (configuration not stated) :: > 100 µM
O=C(CCCCCNC1=CC(=O)c2ccccc2C1=O)NCCC[Te]c1ccccc1 :: 2.05 µM
NS(=O)(=O)c1cccc(-c2cc3ccncc3cc2OCc2ccccc2)c1 :: 9.77 µM
CCCCCCCCn1ccc2cc(NC(=O)Cn3cc(CN4CCC(C)CC4)nn3)ccc21 :: 1.7 µM

Query :: Requested field: GI50. Item: O=C1NC(=O)C(N2CCc3ccccc32)=C1c1ccc(Cl)cc1
Result :: > 25 µM

Query :: Another: C[C@@H](Oc1cc(-c2cnn(C3CC4(CNC4)C3)c2)cnc1N)c1c(Cl)ccc(F)c1Cl
Result :: 10.3 µM

Query :: Another: Nc1ncnc2c1nc(N)n2C1OC(CO)C(O)C1O (configuration not stated)
Result :: 0.458 µM

Query :: Another: CS(=O)/C(C#N)=C\C=C\c1cccc(Cl)c1 (configuration not stated)
Result :: 5.59 µM

Query :: Another: Oc1[nH]c2ccc(Cl)cc2c1/C=c1/ccc2c(c1)N=C(c1ccc(C(F)(F)F)cc1)N=2
Result :: 3.62 µM

Query :: Another: COc1ccccc1N(C(C)=O)C1=C(Cl)C(=O)c2ccccc2C1=O
Result :: 1.87 µM

Query :: Another: Nc1cccc2c1CN(C1CCC(=O)NC1=O)C2=O (configuration not stated)
Result :: > 100 µM

Query :: Another: Cc1ccc(-n2nnc3c(sc4ccccc43)c2=O)cc1
Result :: 7.47 µM

Query :: Another: Cc1cc(Br)c2nsnc2c1[N+](=O)[O-]
Result :: 3.72 µM

Query :: Another: Cc1cc(C(=O)N2CCN(C)CC2)c2c(=O)n(-c3ccccc3)c(=O)n(CC(O)CN3CCN(c4ncccn4)CC3)c2n1 (configuration not stated)
Result :: > 100 µM

Query :: Another: Nc1nccc2c1ncn2C1C=C(CO)C(O)C1O (configuration not stated)
Result :: 29.4 µM

Query :: Another: O=c1c(-c2ccc3c(c2)OCO3)coc2c(CO)c(O)ccc12
Result :: 2.28 µM
